# TARGET ENTITY: COUP transcription factor 2 (Homo sapiens) (UniProt P24468)
# Sequence (P24468 whole entry, looked up): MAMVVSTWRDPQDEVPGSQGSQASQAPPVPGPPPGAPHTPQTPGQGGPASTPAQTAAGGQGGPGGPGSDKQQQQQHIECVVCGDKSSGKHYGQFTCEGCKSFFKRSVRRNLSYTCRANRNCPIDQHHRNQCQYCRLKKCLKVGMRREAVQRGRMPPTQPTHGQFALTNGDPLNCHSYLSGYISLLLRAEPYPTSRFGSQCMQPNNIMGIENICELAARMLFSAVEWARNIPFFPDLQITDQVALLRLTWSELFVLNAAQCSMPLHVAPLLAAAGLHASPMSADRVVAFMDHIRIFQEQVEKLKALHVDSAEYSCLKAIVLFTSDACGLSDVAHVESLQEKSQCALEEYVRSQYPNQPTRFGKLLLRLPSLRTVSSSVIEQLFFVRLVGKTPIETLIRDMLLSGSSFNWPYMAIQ
# PROTOCOL DETAILS: NR2F2 transcriptional activity inhibitors, confirmation, cell-based, luciferase reporter, HEK293, triplicate (AID 687008)
# EXPERIMENTAL SETUP: HEK293 NGFI-A luciferase reporter, luminescence; at 8.5 µM
Some of the results follow. Active and inactive are the calls of the source.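 The calls were made as follows: active = mean inhibition over three repeats above a set limit taken from the earlier primary screen (cut at about 38% in these data); inactive = the rest.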
Could you please pick one outcome from this set? YES (active), NO (inactive)

Reference set (2 entries):
COc1ccc(NC(=O)C2Cc3c(-c4cccc(NC(C)=O)c4)ccnc3O2)cc1OC (stereo not given) : NO
COc1ccc(C(=O)Nc2nc(-c3ccc(S(=O)(=O)N4CCOCC4)cc3)cs2)cc1 : YES

Exercise: Which result was noted for this compound in the test: CCCOC(=O)c1[nH]c2c(c1C)C(=O)CC(c1cc(OC)c(OC)c(OC)c1)C2 (stereo not given)
Key: YES
